Property: TGI; scope: individual molecules
# System: LOX IMVI melanoma
# test-description: NCI tumour cell line growth inhibition, 48 h

Solved entries:
molecule	result
CCCCCCCCCCCCN(O)C(=O)c1ccccc1	> 100 µM
COc1cc([C@@H]2c3cc4c(cc3[C@@H](NC(=O)c3cccc(F)c3)C3COC(=O)[C@@H]32)OCO4)cc(OC)c1O (stereo not given in full)	15.1 µM
COc1cc2c(cc1OC)C(N)CC2=O (stereo not given)	> 100 µM
O=C(CC(=O)C1CCOC1=O)C(=O)Nc1ccc(Cl)cc1Cl (stereo not given)	> 100 µM
CCCCCCCC(=O)SCC/C=C/[C@@H]1CC(=O)NCc2nc(co2)C2=N[C@@](C)(CS2)C(=O)N[C@@H](C(C)C)C(=O)O1	0.103 µM
O=C(CCCCCCSc1nc(-c2ccc(Cl)cc2)cc(-c2ccc(Cl)cc2)n1)NO	3.75 µM
C[C@]12[C@@H]3CC[C@H]1[C@@H](OC(=O)Nc1cc([N+](=O)[O-])cc([N+](=O)[O-])c1)C(=O)N2CC3	> 100 µM
COc1cccc(C2C3=C(COC3=O)Oc3cc4c(cc32)OCO4)c1 (stereo not given)	> 22.1 µM
Cc1ccc(/C=C/C(=O)c2cc(CN(C)C)c(O)c(CN(C)C)c2)cc1	21.2 µM
C=C(C)[C@@H]1CC[C@]2(COC3CCCCO3)CC[C@]3(C)[C@H](CC[C@@H]4[C@@]5(C)C=C(C=O)C(=O)C(C)(C)[C@@H]5CC[C@]43C)[C@@H]12 (stereo not given in full)	2.73 µM

Entry under review: C/C=C/C(=O)N1C(=O)OC[C@@H]1c1ccccc1 . Reported TGI? 35 µM

Now this one: C/C(Cc1ccc(Cl)cc1)=C(/c1ccc(Cl)cc1)c1ccc(OCCN(C)C)cc1 7.18 µM

Again, but for CCCCC#CC#Cc1cccc(=O)o1 32.3 µM

Input Cc1nc(N)sc1C(=O)Nc1cc(C(=O)NCCCN(C)C)n(C)c1 > 100 µM

Next molecule up: C=C(Cl)C(=C)CCC(Cl)C(C)C (stereo not given) > 100 µM

// query: C=C1CN(Cc2ccccc2)[C@@H]2CCCCC[C@H](C#N)[C@H]12 > 100 µM

Request: CCCCCC/C=C\CCCCCCCCCC1=CC(=O)C=C(OC)C1=O 13.9 µM

# iterate: COc1ccc(Cn2cc3c(c2-c2cc(OC)c(OC)c(OC)c2)CCc2cnoc2-3)cc1[N+](=O)[O-] > 100 µM

Please give the result for Cc1cc(NS(=O)(=O)c2ccc(Nc3c4ccccc4nc4ccc(C(=O)Nc5ccc(S(N)(=O)=O)cc5)cc34)cc2)no1 too. > 100 µM

Item: O=C(c1ccccc1)c1nc2ccc(C(F)(F)F)cc2[n+]([O-])c1C(F)(F)F > 100 µM
